FYI, the data here is from paper PMC10061512.

target: EeAChE (Electrophorus electricus, UniProt O42275); experiment: AChE inhibition and enzyme kinetics, Ellman assay; assay type: biochemical, electric eel; conditions: IC50 (μM) ± SD EeAChE, Ellman assay
Sequence (O42275 24-633): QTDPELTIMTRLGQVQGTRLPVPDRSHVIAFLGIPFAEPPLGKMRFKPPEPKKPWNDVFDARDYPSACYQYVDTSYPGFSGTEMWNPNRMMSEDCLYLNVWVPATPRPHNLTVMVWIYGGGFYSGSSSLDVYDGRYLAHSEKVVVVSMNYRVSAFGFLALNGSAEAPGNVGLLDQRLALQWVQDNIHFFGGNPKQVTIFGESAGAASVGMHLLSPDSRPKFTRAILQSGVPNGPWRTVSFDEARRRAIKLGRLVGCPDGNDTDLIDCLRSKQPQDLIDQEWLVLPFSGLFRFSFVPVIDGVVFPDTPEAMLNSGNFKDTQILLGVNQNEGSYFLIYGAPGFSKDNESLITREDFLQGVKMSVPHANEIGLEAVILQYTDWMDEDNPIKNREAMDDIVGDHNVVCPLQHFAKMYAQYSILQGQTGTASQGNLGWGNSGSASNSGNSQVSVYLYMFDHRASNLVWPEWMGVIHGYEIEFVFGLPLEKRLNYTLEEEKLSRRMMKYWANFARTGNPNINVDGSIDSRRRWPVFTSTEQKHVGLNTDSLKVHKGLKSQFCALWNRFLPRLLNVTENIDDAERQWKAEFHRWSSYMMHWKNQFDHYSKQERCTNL
The threshold is 100 µM. Values of IC50 beneath it are tagged t; values meeting or exceeding it are tagged f.

The following molecules have reported results that may help.
INSERT INTO results (molecule, category_label) VALUES
  ('O=c1cc(OCc2cn(Cc3ccc(F)cc3)nn2)c2ccccc2o1', 'f'),
  ('O=c1ccc2ccc(OCc3cn(Cc4ccccc4C(F)(F)F)nn3)cc2o1 [19c]', 't'),
  ('O=c1cc(OCc2cn(Cc3c(F)cccc3F)nn2)c2ccccc2o1', 't'),
  ('O=c1cc(OCc2cn(Cc3cccc(F)c3)nn2)c2ccccc2o1', 'f'),
  ('O=c1cc(OCc2cn(Cc3ccccc3OC(F)(F)F)nn2)c2ccccc2o1', 't');

Input COc1cccc(Cn2cc(COc3cc(=O)oc4ccccc34)nn2)c1 ; condition: IC50 strictly below 100 µM. Does it hold? t

One more molecule: Cc1ccccc1Cn1cc(COc2cc(=O)oc3ccccc23)nn1 f

Continue with O=c1cc(OCc2cn(Cc3c(Cl)cccc3Cl)nn2)c2ccccc2o1 t

COc1cc(Cn2cc(COc3cc(=O)oc4ccccc34)nn2)cc(OC)c1 , same question. t

Same lookup for COc1cc(Cn2cc(COc3ccc4ccc(=O)oc4c3C(C)=O)nn2)cc(OC)c1 [10b] , please. t

Same again, this time with COc1cc(Cn2cc(COc3cc4oc(=O)cc(C)c4cc3OCc3cn(Cc4cc(OC)cc(OC)c4)nn3)nn2)cc(OC)c1 [13b] f

Follow-up item: O=c1cc(OCc2cn(Cc3ccc(OC(F)(F)F)cc3)nn2)c2ccccc2o1 t

Entry O=c1cc(OCc2cn(Cc3ccccc3Cl)nn2)c2ccccc2o1 please t

Same again, this time with O=c1cc(O)c2ccccc2o1 [compound 5, 4-hydroxycoumarin] f

What would you report for CC(=O)c1c(OCc2cn(Cc3ccccc3OC(F)(F)F)nn2)ccc2ccc(=O)oc12 [10d] ? f

What about CC(=O)c1c(OCc2cn(Cc3ccccc3C(F)(F)F)nn2)ccc2ccc(=O)oc12 [10c] ? f

Please give the result for O=c1cc(OCc2cn(Cc3ccc([N+](=O)[O-])cc3)nn2)c2ccccc2o1 too. f

----------
This section lists pIC50 readings for hBACE-1 (Homo sapiens, UniProt P56817).
Note: pIC50 values are expressed as the negative base-10 logarithm of concentration in M.

INSERT INTO assay_data (molecule, reported_metric, numeric_value) VALUES
  ('O=c1cc(O)c2ccccc2o1 [compound 5, 4-hydroxycoumarin]', 'pIC50', 3.77),
  ('CC(=O)c1c(OCc2cn(Cc3ccccc3OC(F)(F)F)nn2)ccc2ccc(=O)oc12 [10d]', 'pIC50', 3.85),
  ('Cc1cc(=O)oc2cc(OCc3cn(Cc4ccccc4C(F)(F)F)nn3)c(OCc3cn(Cc4ccccc4C(F)(F)F)nn3)cc12 [13c]', 'pIC50', 3.86),
  ('O=c1cc(OCc2cn(Cc3ccccc3Cl)nn2)c2ccccc2o1', 'pIC50', 3.73),
  ('O=c1cc(OCc2cn(Cc3c(F)cccc3F)nn2)c2ccccc2o1', 'pIC50', 3.87);

Sample COc1cc2c(C)cc(=O)oc2cc1OCc1cn(Cc2ccccc2C(F)(F)F)nn1 [16c] — what was its pIC50? 3.81

Try the molecule Cc1cc(=O)oc2cc(OCc3cn(Cc4ccccc4OC(F)(F)F)nn3)c(OCc3cn(Cc4ccccc4OC(F)(F)F)nn3)cc12 [13d] 4.68

Also, COc1cc(Cn2cc(COc3cc4oc(=O)cc(C)c4cc3OCc3cn(Cc4cc(OC)cc(OC)c4)nn3)nn2)cc(OC)c1 [13b] please. 3.94

----------
target: eqBChE (Equus caballus)
reported-metric: Ki (µM)
# value in µM; strip the unit string

Bench note: what Ki did COc1cc(Cn2cc(COc3ccc4ccc(=O)oc4c3C(C)=O)nn2)cc(OC)c1 [10b] show? 3.5

----------
// values below are reported pIC50
biological target: hBACE-1 (Homo sapiens, UniProt P56817)
Sequence (P56817 46-501): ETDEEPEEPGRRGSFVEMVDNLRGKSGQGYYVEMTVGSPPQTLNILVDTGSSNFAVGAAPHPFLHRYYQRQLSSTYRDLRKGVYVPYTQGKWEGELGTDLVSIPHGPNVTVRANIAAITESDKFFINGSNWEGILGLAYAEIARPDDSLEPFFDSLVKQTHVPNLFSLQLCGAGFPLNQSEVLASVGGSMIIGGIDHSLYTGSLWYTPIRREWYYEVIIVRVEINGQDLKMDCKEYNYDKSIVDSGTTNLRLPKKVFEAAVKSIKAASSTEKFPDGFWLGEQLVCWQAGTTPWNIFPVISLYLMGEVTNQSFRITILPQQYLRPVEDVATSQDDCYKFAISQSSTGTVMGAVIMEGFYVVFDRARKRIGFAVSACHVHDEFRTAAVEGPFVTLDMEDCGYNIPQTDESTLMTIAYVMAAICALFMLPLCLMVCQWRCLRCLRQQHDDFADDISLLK
For clarity, pIC50 is expressed as the negative log10 of concentration in mol/L.

Reference set, count: 3
INSERT INTO measurements (compound, numeric_value) VALUES
  ('O=c1cc(OCc2cn(Cc3ccc([N+](=O)[O-])cc3)nn2)c2ccccc2o1', 3.81),
  ('COc1cc2c(C)cc(=O)oc2cc1OCc1cn(Cc2ccccc2OC(F)(F)F)nn1 [16d]', 3.78),
  ('O=c1cc(OCc2cn(Cc3cccc(F)c3)nn2)c2ccccc2o1', 4.65);

Here is the next item to consider.
Entry COc1cc(Cn2cc(COc3cc4oc(=O)cc(C)c4cc3OC)nn2)cc(OC)c1 [16b] : reported pIC50 = ? 5.04

----------
target: EeAChE (Electrophorus electricus, UniProt O42275); assay: AChE inhibition and enzyme kinetics, Ellman assay; assay type: biochemical, electric eel; settings: IC50 (μM) ± SD EeAChE, Ellman assay
reported-metric: IC50 (µM)
# value in µM; strip the unit string

INSERT INTO measurements (compound, tgt, unit, numeric_value) VALUES
  ('COc1cc2c(C)cc(=O)oc2cc1O [compound 14]', 'EeAChE (Electrophorus electricus, UniProt O42275)', 'µM', 89.1),
  ('O=c1cc(OCc2cn(Cc3ccc(C(F)(F)F)cc3)nn2)c2ccccc2o1 [8j]', 'EeAChE (Electrophorus electricus, UniProt O42275)', 'µM', 23.3),
  ('O=c1cc(OCc2cn(Cc3cccc(Cl)c3)nn2)c2ccccc2o1 [8c]', 'EeAChE (Electrophorus electricus, UniProt O42275)', 'µM', 62.6);

Moving on to another compound below.
What does the data say about its IC50? Entry: O=c1cc(OCc2cn(Cc3ccccc3)nn2)c2ccccc2o1 [8a] 151

----------
# pIC50 measurements, system: eqBChE (Equus caballus)
Answer as the number alone; pIC50 is minus log10 of concentration in mol/L.

INSERT INTO results (compound, reported_metric, numeric_value) VALUES
  ('COc1cccc(Cn2cc(COc3cc4oc(=O)cc(C)c4cc3OC)nn2)c1 [16a]', 'pIC50', 4.02),
  ('Cc1cc(=O)oc2cc(OCc3cn(Cc4ccccc4C(F)(F)F)nn3)c(OCc3cn(Cc4ccccc4C(F)(F)F)nn3)cc12 [13c]', 'pIC50', 4.08),
  ('O=c1cc(O)c2ccccc2o1 [compound 5, 4-hydroxycoumarin]', 'pIC50', 3.78);

Need pIC50, item CC(=O)c1c(OCc2cn(Cc3ccccc3OC(F)(F)F)nn2)ccc2ccc(=O)oc12 [10d] 3.77

How about this compound: COc1cccc(Cn2cc(COc3cc(=O)oc4ccccc34)nn2)c1 3.85

Please answer likewise for COc1cc(Cn2cc(COc3ccc4ccc(=O)oc4c3C(C)=O)nn2)cc(OC)c1 [10b] 5.49

And for O=c1ccc2ccc(OCc3cn(Cc4ccccc4OC(F)(F)F)nn3)cc2o1 [19d] ? 4.01

----------
molecular target: hBACE-1 (Homo sapiens)
reported-metric: IC50 (µM)
Give the number; µM is assumed, so skip it.

Quick one: IC50 for O=c1cc(OCc2cn(Cc3ccc(F)cc3)nn2)c2ccccc2o1 ? 24.2

// next record O=c1ccc2ccc(O)cc2o1 [compound 17, 7-hydroxycoumarin] 175

And then O=c1cc(OCc2cn(Cc3ccc(OC(F)(F)F)cc3)nn2)c2ccccc2o1 , what is it? 133

Please give the result for COc1cccc(Cn2cc(COc3cc(=O)oc4ccccc34)nn2)c1 too. 126

What about this compound? Cc1cc(=O)oc2cc(O)c(O)cc12 [compound 11, 4-methyl-6,7-dihydroxycoumarin] 105

Another compound to look at: COc1cccc(Cn2cc(COc3ccc4ccc(=O)oc4c3C(C)=O)nn2)c1 [10a] 119

----------
molecular target: eqBChE (Equus caballus, UniProt P81908); test: BChE inhibition and enzyme kinetics, Ellman assay; type: biochemical, equine
Sequence (P81908 whole entry): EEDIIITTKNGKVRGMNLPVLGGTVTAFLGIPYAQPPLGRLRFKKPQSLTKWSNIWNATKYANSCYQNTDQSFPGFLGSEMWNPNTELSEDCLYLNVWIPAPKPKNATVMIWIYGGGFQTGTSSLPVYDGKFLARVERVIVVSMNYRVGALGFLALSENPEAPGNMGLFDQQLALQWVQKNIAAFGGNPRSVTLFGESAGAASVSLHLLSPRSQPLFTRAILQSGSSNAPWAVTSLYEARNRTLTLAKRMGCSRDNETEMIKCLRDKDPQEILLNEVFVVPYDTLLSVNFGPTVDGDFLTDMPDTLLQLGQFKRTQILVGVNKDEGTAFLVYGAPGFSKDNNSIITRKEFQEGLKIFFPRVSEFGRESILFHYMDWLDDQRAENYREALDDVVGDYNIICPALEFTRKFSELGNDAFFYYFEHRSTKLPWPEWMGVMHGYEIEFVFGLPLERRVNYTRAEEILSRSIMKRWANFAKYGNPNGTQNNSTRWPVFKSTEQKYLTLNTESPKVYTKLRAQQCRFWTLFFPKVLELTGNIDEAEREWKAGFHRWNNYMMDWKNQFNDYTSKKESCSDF
Lab note - cut at 60 µM for IC50: TRUE if strictly below, FALSE if not.

Some solved entries appear below for comparison.
INSERT INTO results (compound, tgt, category_label) VALUES
  ('COc1cc(Cn2cc(COc3cc4oc(=O)cc(C)c4cc3OC)nn2)cc(OC)c1 [16b]', 'eqBChE (Equus caballus, UniProt P81908)', 'FALSE'),
  ('O=c1cc(OCc2cn(Cc3ccc(F)cc3)nn2)c2ccccc2o1 [8g]', 'eqBChE (Equus caballus, UniProt P81908)', 'FALSE'),
  ('O=c1cc(OCc2cn(Cc3ccccc3F)nn2)c2ccccc2o1 [8e]', 'eqBChE (Equus caballus, UniProt P81908)', 'FALSE');

Just wondering, is IC50 of COc1cc(Cn2cc(COc3cc4oc(=O)cc(C)c4cc3OCc3cn(Cc4cc(OC)cc(OC)c4)nn3)nn2)cc(OC)c1 [13b] below 60 µM? TRUE

Same lookup for CC(=O)c1c(OCc2cn(Cc3ccccc3C(F)(F)F)nn2)ccc2ccc(=O)oc12 [10c] , please. TRUE

Consider next the compound COc1cc2c(C)cc(=O)oc2cc1OCc1cn(Cc2ccccc2C(F)(F)F)nn1 [16c] in the same way. TRUE

Repeat for the following compound: COc1cccc(Cn2cc(COc3cc4oc(=O)cc(C)c4cc3OCc3cn(Cc4cccc(OC)c4)nn3)nn2)c1 [13a] TRUE

Then what about the compound O=c1cc(OCc2cn(Cc3ccc([N+](=O)[O-])cc3)nn2)c2ccccc2o1 [8p] ? FALSE

Also need COc1cc2c(C)cc(=O)oc2cc1OCc1cn(Cc2ccccc2OC(F)(F)F)nn1 [16d] , thanks. FALSE

Same lookup for O=c1cc(OCc2cn(Cc3c(F)cccc3F)nn2)c2ccccc2o1 [8h] , please. FALSE
